System Under Test: MAO-A (Mus musculus)
Construct: gene Maoa; native enzyme in mouse brain homogenate, 20 ug/well
Sequence (Q64133 whole entry): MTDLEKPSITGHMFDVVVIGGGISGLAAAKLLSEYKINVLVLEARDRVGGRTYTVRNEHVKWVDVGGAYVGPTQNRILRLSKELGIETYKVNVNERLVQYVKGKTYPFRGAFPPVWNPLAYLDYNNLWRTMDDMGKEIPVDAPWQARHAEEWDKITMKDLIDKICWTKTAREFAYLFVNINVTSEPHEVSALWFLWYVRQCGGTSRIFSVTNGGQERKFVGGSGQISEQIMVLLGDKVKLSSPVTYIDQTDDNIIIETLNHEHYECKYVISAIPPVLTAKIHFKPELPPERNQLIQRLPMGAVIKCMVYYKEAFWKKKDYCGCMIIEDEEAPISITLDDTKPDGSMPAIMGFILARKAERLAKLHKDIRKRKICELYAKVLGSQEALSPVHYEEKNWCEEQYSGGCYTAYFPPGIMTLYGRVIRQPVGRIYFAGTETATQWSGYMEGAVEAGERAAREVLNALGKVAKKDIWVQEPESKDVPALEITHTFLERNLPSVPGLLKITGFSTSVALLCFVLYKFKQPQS
Measurement Notes: radioligand displacement of […]FEH, filtration
Type: binding
Assay Conditions: [18F]fluoroethylharmine radioligand, PBS, 0.1% BSA, 2% DMSO
The following compounds are shown together with reported [^18F]FEH MAO-A pIC50^a values.
Endpoint Label: [^18F]FEH MAO-A pIC50^a

{"columns": ["Smiles Repr", "Recorded Result"],
 "data": [
  ["Fc1cnccc1-c1ccc2c(n1)[nH]c1ccncc12", 6.1],
  ["Fc1ccc(-c2ccc3c(n2)[nH]c2ccncc23)nc1", 7.1],
  ["Fc1ccc(-c2ccc3c(c2)[nH]c2ccncc23)cn1", 7.7],
  ["Fc1ccc(-c2ccc3c(n2)[nH]c2ccncc23)cn1", 6.3],
  ["Fc1cccc(-c2ccc3c(n2)[nH]c2ccncc23)n1", 6.6]
]}
